These data points were gathered from BigSolDB 2.1.

Conditions: in ethyl acetate, 293.15 K
Readout Name: solubility (mole fraction)
Answers are plain numbers.

Req: Quick one: solubility (mole fraction) for Cl.N[C@@H](Cc1ccccc1)C(=O)OCc1ccccc1 ?
Resp: 3.8e-05

###

Conditions: in n-butanol, 283.15 K
Readout Name: solubility (mole fraction)

Req: Quick one: solubility (mole fraction) for Cl.N[C@@H](Cc1ccccc1)C(=O)OCc1ccccc1 ?
Resp: 0.0011

###

Conditions: in n-pentanol, 283.15 K
Readout Name: solubility (mole fraction)
One number for each entry.

Req: Quick one: solubility (mole fraction) for Cl.N[C@@H](Cc1ccccc1)C(=O)OCc1ccccc1 ?
Resp: 0.000703
